Target: Schistosoma mansoni thioredoxin glutathione reductase (TGR)
Assay: qHTS Assay for the Inhibitors of Schistosoma Mansoni Peroxiredoxins; note: nearly all actives have a fitted effect of over 60% in size
Details: purified TGR, DTNB reduction, TNB absorbance 405 nm; series mostly up to 114 µM
In all, about 360,000 compounds went through this assay and about 11,000 (3.1%) were called active. About 4% were inconclusive and are not listed. Calls come from the whole dose curve; as a rule, active = well fitted inhibition curve with a large enough effect; inconclusive = small, poorly fitted or top-dose-only effect; inactive = no such curve, though single readings can be large or run the other way. Only a selection was taken, and actives are over-represented in it overall.
# output must be one of label 1 for active, label 0 for inactive

molecule	assigned class
CC(C)(C)C1C/C(=C/c2ccco2)C(=O)/C(=C/c2ccco2)C1 (stereo unspecified)	label 1
CCc1ccc(C(=O)CC2(O)C(=O)N(CCc3ccccc3)c3ccc(Br)cc32)cc1 (stereo unspecified)	label 0
COc1ccc(C)cc1Nc1nc2ccccc2c2nnc(C)n12	label 0

Exam item: Returns: the outcome recorded for `Cc1cccc(OCCSc2nc3ccc(NC(=O)COc4ccccc4C)cc3s2)c1` in this assay.
Marked response: label 0

###

Target: Schistosoma mansoni thioredoxin glutathione reductase (TGR)
Assay: qHTS Assay for the Inhibitors of Schistosoma Mansoni Peroxiredoxins; note: nearly all actives have a fitted effect of over 60% in size
Conditions: purified TGR, DTNB reduction, TNB absorbance 405 nm; series mostly up to 114 µM
Among all 360,000 compounds or so, about 11,000 (3.1%) were called active. About 4% were inconclusive and are not listed. The call rests on the fitted dose curve; in most records, active means well fitted inhibition curve with a large enough effect; inconclusive means small, poorly fitted or top-dose-only effect; inactive means no such curve, though single readings can be large or run the other way. Shown is part of a subset that was picked to be rich in actives.
# output must be one of label 1 = active, label 0 = inactive

compound	assigned class
CCOC(=O)C1(Cc2ccccc2C)CCCN(C(=O)c2ccc(COC)o2)C1 (stereo not drawn)	label 1
O=C(Nc1ccc(Oc2ccccc2)cc1)C1CCN(S(=O)(=O)c2ccc(Cl)cc2)CC1	label 0
Cc1c(NC(=S)Nc2ccccc2)c(=O)n(-c2ccccc2)n1C	label 0
CCOC(=O)C1Cn2c(nc3c(c2=O)C(C)(CC)Cc2ccccc2-3)S1 (stereo not drawn)	label 0
O=C(NN1C(=O)C2C3C=CC(C4CC34)C2C1=O)c1ccc(Cl)cc1 (stereo not drawn)	label 0
Cc1ccc(NC(=O)CCC(=O)c2ccc(Br)cc2)cc1	label 0

Exam item: Returns: the outcome recorded for `CCC1(CC)Cc2ccccc2-c2nc(CCl)[nH]c(=O)c21` in this assay.
Marked response: label 1

Exam item: Returns: the outcome recorded for `O=C(NNC(=O)c1ccco1)Nc1ccccc1` in this assay.
Marked response: label 0

###

Biological target: Schistosoma mansoni thioredoxin glutathione reductase (TGR)
Assay: qHTS Assay for the Inhibitors of Schistosoma Mansoni Peroxiredoxins; note: nearly all actives have a fitted effect of over 60% in size
Settings: purified TGR, DTNB reduction, TNB absorbance 405 nm; series mostly up to 114 µM
The whole screen tested about 360,000 compounds, of which about 11,000 (3.1%) were called active. Not shown: some 4% with an inconclusive outcome. Calls come from the whole dose curve; as a rule, active = well fitted inhibition curve with a large enough effect; inconclusive = small, poorly fitted or top-dose-only effect; inactive = no such curve, though single readings can be large or run the other way. Many of the other results were omitted from the sample, so actives are more common in it than they were.
# output must be one of active, inactive

Example entries begin here.
CC1=C(C(=O)N2CCN(c3cccc(C(F)(F)F)c3)CC2)C2(CCCCC2)OC1=O inactive
O=C(CCN1CCCCC1)N=Nc1c(O)[nH]c2ccccc12 active

Exam item: Returns: the outcome recorded for `CCn1c(SCC(=O)Nc2cc(C)c(Cl)cc2OC)nnc1-c1ccco1` in this assay.
Marked response: inactive

###

Biological target: Schistosoma mansoni thioredoxin glutathione reductase (TGR) (UniProt Q962Y6)
Test: qHTS Assay for the Inhibitors of Schistosoma Mansoni Peroxiredoxins; note: nearly all actives have a fitted effect of over 60% in size; note: potency is the fitted concentration of half-maximal effect
Conditions: purified TGR, DTNB reduction, TNB absorbance 405 nm; series mostly up to 114 µM
The whole screen tested about 360,000 compounds, of which about 11,000 (3.1%) were called active. About 4% were inconclusive and are not listed. The sample holds actives, similar compounds and a random draw of the others, so the mix is not that of the screen.
readout type: Potency

Illustrative cases are given below, each with its answer.
compound	Potency
COc1ccccc1CNC(=O)C(=O)NCC(c1cccs1)S(=O)(=O)c1cccs1 (configuration not stated)	25.1 µM (active)
Cc1ccc(Cn2c(C)c3cnn(CC(=O)NCc4ccccc4)c(=O)c3c2C)cc1	inactive
CCc1ccc(S(=O)(=O)Nc2cc3c(cc2N2CCCCC2)n(C)c(=O)c(=O)n3C)cc1	50.1 µM (active)
COc1ccc(C(=O)CSc2c(C(C)C)cnc3c2c(=O)n(C)c(=O)n3C)cc1	inactive

Exam item: Give the reported value of Potency for this record: Cc1c2cnn(CC(=O)NCCCN3CC(C)CC(C)C3)c(=O)c2c(C)n1Cc1ccc(Cl)cc1 (configuration not stated)
Marked response: inactive

Exam item: Give the reported value of Potency for this record: COC(C(=O)NCc1ccccc1C)c1ccccc1 (configuration not stated)
Marked response: inactive

Exam item: Give the reported value of Potency for this record: `Cc1cc2cc(CNC(=O)c3cccs3)ccc2[nH]1`
Marked response: 31.6 µM (active)

Data origin, for the record: PubChem BioAssay AID485364
